Target: ZIKV E protein (Zika) (Zika virus, UniProt A0A024B7W1)
Construct: the envelope protein of the Zika virus (ZIKV E)
Sequence (A0A024B7W1 291-794): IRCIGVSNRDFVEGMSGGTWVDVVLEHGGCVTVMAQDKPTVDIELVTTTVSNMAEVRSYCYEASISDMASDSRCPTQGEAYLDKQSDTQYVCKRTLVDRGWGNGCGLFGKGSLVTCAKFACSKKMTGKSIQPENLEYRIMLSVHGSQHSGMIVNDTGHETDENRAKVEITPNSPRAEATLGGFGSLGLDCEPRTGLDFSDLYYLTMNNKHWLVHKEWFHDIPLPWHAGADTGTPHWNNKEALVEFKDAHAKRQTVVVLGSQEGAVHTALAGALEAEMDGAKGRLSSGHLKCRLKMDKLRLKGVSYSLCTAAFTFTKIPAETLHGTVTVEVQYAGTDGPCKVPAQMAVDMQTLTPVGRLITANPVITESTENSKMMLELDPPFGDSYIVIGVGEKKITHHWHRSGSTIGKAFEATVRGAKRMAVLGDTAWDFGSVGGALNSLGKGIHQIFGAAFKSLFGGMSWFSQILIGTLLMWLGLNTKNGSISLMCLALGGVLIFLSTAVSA
Experiment: BIACORE surface plasmon resonance interaction with immobilized peptide
Type: binding
No end group written: not given here.

{"Substance": "Ac-RVTQMNLNDRLASLYDKV [SEQ ID NO: 2]", "Assay system": "ZIKV E protein (Zika) (Zika virus, UniProt A0A024B7W1)", "interaction": "showed interaction"}
{"Substance": "RVTQMNLNDRLASLYDKV [SEQ ID NO: 1]", "Assay system": "ZIKV E protein (Zika) (Zika virus, UniProt A0A024B7W1)", "interaction": "showed interaction"}
{"Substance": "NLNDRLASLYDKV [SEQ ID NO: 15]", "Assay system": "ZIKV E protein (Zika) (Zika virus, UniProt A0A024B7W1)", "interaction": "showed interaction"}
{"Substance": "NDRLASLYDKV [SEQ ID NO: 14]", "Assay system": "ZIKV E protein (Zika) (Zika virus, UniProt A0A024B7W1)", "interaction": "showed interaction"}

Where do these numbers come from? They come from patent US20250282828A1.
